// provenance: PubChem BioAssay

Measured inhibition, listed per entry.
Biological target: Pantothenate synthetase (Mycobacterium tuberculosis (strain ATCC 25618 / H37Rv)) (UniProt P9WIL5)
Sequence (P9WIL5 whole entry, looked up): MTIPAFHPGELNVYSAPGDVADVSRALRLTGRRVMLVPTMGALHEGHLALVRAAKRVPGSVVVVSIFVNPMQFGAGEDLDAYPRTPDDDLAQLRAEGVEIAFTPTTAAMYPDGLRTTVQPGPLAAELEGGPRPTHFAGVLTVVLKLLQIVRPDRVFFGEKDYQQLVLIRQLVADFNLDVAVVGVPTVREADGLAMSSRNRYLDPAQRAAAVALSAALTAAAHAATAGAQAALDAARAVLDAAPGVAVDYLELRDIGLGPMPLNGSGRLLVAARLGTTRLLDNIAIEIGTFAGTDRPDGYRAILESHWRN
Test: Coupled enzyme confirmation of inhibitors against recombinant Mtb PanC (AID 375);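 also: 0% = full reaction with vehicle and 100% = no enzyme background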
Settings: coupled enzyme assay; at 10 µM, stronger effect = higher value
Number in %, nothing else.

Here is how some compounds turned out for inhibition.
CCCC1(C(=O)OC)NC(c2cc(OC)c(OC)c(OC)c2)C2C(=O)N(CC)C(=O)C21 (configuration not stated)    0
COc1cccc(OCc2nnc(SCC(=O)OCc3ccccc3)o2)c1    0
COc1cccc(/C=N/n2c(-c3ccco3)nc3ccccc3c2=O)c1    1
COC(=O)Cc1c(C)c2ccc(OCC(=O)N3CCOCC3)cc2oc1=O    0
COC(=O)CCSCc1cn2cc(Cl)ccc2n1    0
CCC(C(=O)O)n1c(C(F)(F)F)nc2ccccc21 (configuration not stated)    4

// inhibition lookup, key: CCOCCCNc1ncnc2c1[nH]c1ccccc12 0

// inhibition lookup, key: COc1ccc2nc(NC(=O)C3CCCN(S(=O)(=O)c4cccc5nsnc45)C3)sc2c1 (configuration not stated) 5

// inhibition lookup, key: COc1ccc2c(c1OC)C(=O)OC2Nn1cncn1 (configuration not stated) 2

// inhibition lookup, key: COc1cccc(NC(=O)CSc2nnc(-c3cccs3)n2C)c1 0

// inhibition lookup, key: CN(C)CCN1C(=O)c2oc3ccc(Cl)cc3c(=O)c2C1c1cccc(Br)c1 (configuration not stated) 0

// inhibition lookup, key: Cc1ccc2cc(CN(CC(C)C)C(=O)C3CCCO3)c(=O)[nH]c2c1 (configuration not stated) 0
